This listing pairs compounds with measured LC50 MW.
Test system: Maize weevil [Sitophilus zeamais (Motschulsky)]
Experiment: Maize weevil on dipped corn seeds (MW), 48 hours
Assay type: in vivo
Details: percent in solution, adult weevils
Protocol: The compounds in Tables 1 and 2 above were tested for insecticidal activity using the following testing procedures. LC50 values, based on the results of these tests and calculated according to dosage-mortality curves, are expressed in Table 3. Maize weevil [Sitophilus zeamais (Motschulsky)]: Test compounds were diluted in a 50:50 acetone:water solution. […] Mortality was recorded after 48 hours. […]

Answered cases to consult:
CC(C)C(=Nc1ccc(I)c(Cl)c1)OCc1ccc(F)c(Oc2ccc(F)cc2)c1; > 0.01%
CC(C)C(=Nc1cccc(C(F)(F)F)c1)OCc1ccnc(Oc2ccc(Cl)cc2)c1; > 0.01%
CC(Cl)(Cl)C(=Nc1ccc(Cl)cc1)OCc1cccc(Oc2ccccc2)c1; > 0.01%
CC(C)C(=Nc1ccc(Cl)c(Cl)c1)OCc1cccc(Nc2ccc(F)cc2)c1; > 0.01%
CC(C)C(=Nc1ccc2c(c1)OCO2)OCc1coc(Cc2ccccc2)c1; > 0.01%
CC(C)C(=Nc1cccc(C(F)(F)F)c1)OCc1ccc(F)c(Oc2ccc(F)cc2)c1; > 0.01%
CC(Cl)C(=Nc1ccc(Cl)cc1)OCc1cccc(Oc2ccccc2)c1 (stereo not shown); > 0.01%
CC(C)C(=Nc1c(F)c(F)c(F)c(F)c1F)OCc1cccc(Oc2ccc(F)cc2)c1; 0.003%

Let me know recorded LC50 MW for CC(C)C(=Nc1ccc(C(F)(F)F)c(Br)c1)OCc1ccc(F)c(Oc2ccc(Cl)cc2)c1 [Compound 433] , thanks.
0.005%

Let me know recorded LC50 MW for CC(C)C(=Nc1ccc(F)c(Cl)c1)OCc1cccc(Oc2ccc(Cl)cc2)c1 , thanks.
0.006%

====

This listing pairs compounds with measured LC50 TBW C (contact).
Test system: Tobacco Budworm [Heliothis virescens (Fabricius)] larvae
Test: Tobacco budworm larvae, contact (TBW-C), 5 days
Type: in vivo
Conditions: percent in solution, second-instar larvae
Write it as a number; the unit % goes unstated.

Answered cases to consult:
CC(C)C(=Nc1ccc(F)c(Cl)c1F)OCc1cccc(Oc2ccc(Cl)cc2)c1 [Compound 331]; 0.0004
CC(C)C(=Nc1ccc(F)c(Cl)c1)OCc1ccc(F)c(Oc2ccccc2)c1 [Compound 82]; 0.0008
Clc1ccc(N=C(OCc2cccc(Oc3ccccc3)c2)C(Cl)Cl)c(Cl)c1 [Compound 4]; 0.05
CC(C)C(=Nc1ccc(F)c(Cl)c1F)OCc1cccc(Oc2ccccc2)c1 [Compound 332]; 0.00075
Cc1ccc(F)cc1N=C(OCc1cccc(Oc2ccccc2)c1)C(C)C [Compound 74]; 0.0025

Let me know recorded LC50 TBW C (contact) for ClCC(=Nc1ccc(Cl)cc1)OCc1cccc(Oc2ccccc2)c1 [Compound 31] , thanks.
0.01

Let me know recorded LC50 TBW C (contact) for CC(C)C(=Nc1ccc(F)c(Cl)c1F)OCc1ccc(F)c(Oc2ccc(F)cc2)c1 [Compound 330] , thanks.
0.00035

Let me know recorded LC50 TBW C (contact) for CC(C)C(=Nc1cc(F)cc(F)c1)OCc1cccc(Oc2ccc(F)cc2)c1 [Compound 199] , thanks.
0.003

Let me know recorded LC50 TBW C (contact) for CC(C)C(=Nc1ccc(OC(F)(F)F)cc1)OCc1ccc(F)c(Oc2ccccc2)c1 [Compound 338] , thanks.
0.00037

Let me know recorded LC50 TBW C (contact) for CC(C)C(=Nc1ccc(Br)c(F)c1)OCc1ccc(F)c(Oc2ccc(F)cc2)c1 [Compound 282] , thanks.
0.0007

====

Test system: Maize weevil [Sitophilus zeamais (Motschulsky)]
Assay: Maize weevil on dipped corn seeds (MW), 48 hours
Assay type: in vivo
Details: percent in solution, adult weevils
READOUT_NAME: LC50 MW

CC(C)C(=Nc1cccc(C(F)(F)F)c1)OCc1cc(Oc2ccccc2)ccn1 [Compound 506]; > 0.01%
CC(C)C(=Nc1ccc(F)c(Cl)c1)OCc1ccc(OCc2ccccc2)cc1 [Compound 475]; > 0.01%
CC(C)C(=Nc1ccc(Br)c(F)c1)OCc1ccc(F)c(Oc2ccc(F)cc2)c1 [Compound 282]; 0.008%

Let me know recorded LC50 MW for CC(C)C(=Nc1ccc(F)c(C(F)(F)F)c1)OCc1ccc(F)c(Oc2ccccc2)c1 [Compound 300] , thanks.
0.01%

====

This listing pairs compounds with measured LC50 MW.
Tested on: Maize weevil [Sitophilus zeamais (Motschulsky)]
Assay: Maize weevil on dipped corn seeds (MW), 48 hours
Format: in vivo
Conditions: percent in solution, adult weevils

Let me know recorded LC50 MW for CC(C)C(=Nc1ccc2c(c1)OC(C)(C)O2)OCc1cccc(Oc2ccc(F)cc2)c1 [Compound 219] , thanks.
> 0.01%

====

Tested on: Maize weevil [Sitophilus zeamais (Motschulsky)]
Assay: Maize weevil on dipped corn seeds (MW), 48 hours
Assay type: in vivo
Conditions: percent in solution, adult weevils
This listing pairs molecules with measured LC50 MW.

Cc1cccc(N=C(OCc2cccc(Oc3ccccc3)c2)C(C)C)c1 [Compound 155]; > 0.01%

Let me know recorded LC50 MW for CC(C)C(=Nc1cc(Cl)ccc1Cl)OCc1cccc(Oc2ccccc2)c1 [Compound 13] , thanks.
> 0.01%

Let me know recorded LC50 MW for FC(F)(F)Oc1ccc(N=C(OCc2cccc(Oc3ccccc3)c2)C(Cl)Cl)cc1 [Compound 64] , thanks.
> 0.01%

Let me know recorded LC50 MW for CC(C)C(=Nc1ccc(F)c(Cl)c1F)OCc1ccc(F)c(Oc2ccc(Cl)cc2)c1 [Compound 395] , thanks.
0.004%

====

Tested on: Tobacco Budworm [Heliothis virescens (Fabricius)] larvae
Assay: Tobacco budworm larvae, contact (TBW-C), 5 days
Format: in vivo
Conditions: percent in solution, second-instar larvae
This listing pairs compounds with measured LC50 TBW C (contact).
Write it as a number; the unit % goes unstated.

CC(C)C(=Nc1ccc(F)cc1)OCc1ccc(F)c(Oc2ccccc2)c1 [Compound 53]; 0.0025
CC(C)C(=Nc1ccc2c(c1)OC(C)(C)O2)OCc1ccc(F)c(Oc2ccc(F)cc2)c1 [Compound 283]; 0.0009

Let me know recorded LC50 TBW C (contact) for Clc1ccccc1N=C(OCc1cccc(Oc2ccccc2)c1)C(Cl)Cl [Compound 34] , thanks.
0.01

====

Tested on: Maize weevil [Sitophilus zeamais (Motschulsky)]
Assay: Maize weevil on dipped corn seeds (MW), 48 hours
Type: in vivo
Conditions: percent in solution, adult weevils
This listing pairs compounds with measured LC50 MW.

CC(C)C(=Nc1ccc2c(c1)OCO2)OCc1cccc(Oc2ccc(Cl)cn2)c1; > 0.01%

Let me know recorded LC50 MW for Cc1c(COC(=Nc2ccc(C(C)(C)C)cc2)C(C)C)cccc1-c1ccccc1 , thanks.
> 0.01%

Let me know recorded LC50 MW for CC(C)C(=Nc1ccc(F)c(F)c1)OCc1cccc(Oc2ccc(F)cc2)c1 , thanks.
0.0075%

Let me know recorded LC50 MW for C=CCOc1cccc(COC(=Nc2ccc(F)c(Cl)c2)C(C)C)c1 , thanks.
> 0.01%

Let me know recorded LC50 MW for CC(C)C(=Nc1ccc(C#N)cc1)OCc1ccc(F)c(Oc2ccc(F)cc2)c1 , thanks.
> 0.01%

Let me know recorded LC50 MW for CC(C)C(=Nc1ccc(Br)c(F)c1)OCc1cccc(Oc2ccc(Cl)cc2)n1 , thanks.
> 0.01%

Let me know recorded LC50 MW for COC(=O)c1ccc(N=C(OCc2cccc(Oc3ccccc3)c2)C(C)C)cc1 , thanks.
> 0.01%

Let me know recorded LC50 MW for CCOc1cccc(N=C(OCc2ccc(F)c(Oc3ccc(F)cc3)c2)C(C)C)c1 , thanks.
> 0.01%

Let me know recorded LC50 MW for C=C(C)C(=Nc1ccc(C(F)(F)F)cc1)OCc1ccc(F)c(Oc2ccccc2)c1 , thanks.
0.0037%

====

This listing pairs compounds with measured LC50 TBW C (contact).
Tested on: Tobacco Budworm [Heliothis virescens (Fabricius)] larvae
Test: Tobacco budworm larvae, contact (TBW-C), 5 days
Type: in vivo
Details: percent in solution, second-instar larvae

Answered cases to consult:
C=C(C)C(=Nc1ccc(C(F)(F)F)cc1)OCc1ccc(F)c(Oc2ccc(Cl)cc2)c1; < 0.1%
CC(=Nc1ccccc1)OCc1cccc(Oc2ccccc2)c1; > 0.1%

Let me know recorded LC50 TBW C (contact) for O=[N+]([O-])c1ccc(N=C(OCc2cccc(Oc3ccccc3)c2)C(Cl)Cl)cc1 , thanks.
> 0.1%

====

System: Maize weevil [Sitophilus zeamais (Motschulsky)]
Assay: Maize weevil on dipped corn seeds (MW), 48 hours
Format: in vivo
Conditions: percent in solution, adult weevils
READOUT_NAME: LC50 MW

CC(C)C(=Nc1ccc(Br)cc1)OCc1cccc(Oc2ccc(F)cc2)c1 [Compound 226]; 0.009%
COc1cccc(N=C(OCc2cccc(Oc3ccccc3)c2)C(C)C)c1 [Compound 143]; > 0.01%
CC(C)C(=Nc1ccc(F)c(Cl)c1)OCc1cccc(Oc2ccc(F)cc2)n1 [Compound 461]; 0.0075%
CCc1ccc(N=C(OCc2ccc(F)c(Oc3ccc(F)cc3)c2)C(C)C)cc1 [Compound 361]; > 0.01%
CC(C)C(=Nc1ccc(Cl)c(Cl)c1)OCc1cccc(Oc2ccccc2)c1 [Compound 14]; 0.01%

Let me know recorded LC50 MW for CC(C)C(=Nc1ccc2c(c1)OCO2)OCc1ccnc(Oc2ccccc2)c1 [Compound 540] , thanks.
> 0.01%

Let me know recorded LC50 MW for CC(C)C(=Nc1ccc(F)cc1)OCc1cccc(Oc2ccc(Br)cc2)c1 [Compound 259] , thanks.
> 0.01%

Let me know recorded LC50 MW for CC(C)C(=Nc1cccc(C(F)(F)F)c1)OCc1cc(Oc2ccc(Cl)cc2)ccn1 [Compound 509] , thanks.
> 0.01%

Let me know recorded LC50 MW for Fc1ccc(Oc2cccc(COC(=Nc3ccc(F)c(Cl)c3)C3CC3)c2)cc1 [Compound 116] , thanks.
> 0.01%

Let me know recorded LC50 MW for COc1ccc(N=C(OCc2ccc(F)c(Oc3ccc(Cl)cc3)c2)C(C)C)cc1 [Compound 412] , thanks.
> 0.01%

Let me know recorded LC50 MW for CC(C)C(=Nc1ccc(I)cc1)OCc1ccc(F)c(Oc2ccc(F)cc2)c1 [Compound 335] , thanks.
> 0.01%

Let me know recorded LC50 MW for CC(C)C(=Nc1cccc(C(F)(F)F)c1)OCc1cccc(Oc2ccc(Cl)cn2)c1 [Compound 518] , thanks.
> 0.01%
